Each recorded value in this set is attributed to patent US20240148821A1.

- test.target: protein-protein interaction between Kras and SOS1 (biotin-tagged human Kras loaded with GDP, His-tagged human SOS1) (Homo sapiens (Human), UniProt P01116, G12D)
- test.method.notes: Protein-protein interaction inhibition between Kras and SOS1 (KrasG12D-SOS PPI) using AlphaScreen;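 further: kras produced in E. coli, Ni-coupled donor beads and streptavidin acceptor beads, excitation 680 nm with emission detected at 520–620 nm via singlet oxygen transfer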
- Format: biochemical
- assay.context: AlphaScreen; biotin-tagged human Kras loaded with GDP, His-tagged human SOS1; read-out: KRAS G12D-SOS PPI IC50
Bridge positions count the residues as written; N and C are the ends. Square brackets hold non-standard residues; d marks the D form. Peptide text beside a SMILES is read from it. * marks the point of attachment. hPhe(3,5-F2-4-CF3) = N[C@@H](CCc1cc(F)c(C(F)(F)F)c(F)c1)C(=O)O; hPhe(3-Cl-4-CF3) = N[C@@H](CCc1ccc(C(F)(F)F)c(Cl)c1)C(=O)O; NEtPhe(4-Me) = CCN[C@@H](Cc1ccc(C)cc1)C(=O)O; NMeAbu(4,4,4-F3) = CN[C@@H](CC(F)(F)F)C(=O)O; NMePhe(4-Me) = CN[C@@H](Cc1ccc(C)cc1)C(=O)O; Hyp = O=C(O)[C@@H]1C[C@@H](O)CN1; NMeChg = CN[C@H](C(=O)O)C1CCCCC1; NMeI = CC[C@H](C)[C@H](NC)C(=O)O; NMeD = CN[C@@H](CC(=O)O)C(=O)O; NMeL = CN[C@@H](CC(C)C)C(=O)O; NMeA = CN[C@@H](C)C(=O)O; Pyrrolidide = C1CCN(*)C1; Ac5c = NC1(C(=O)O)CCCC1; Aze = O=C(O)[C@@H]1CCN1; Sar = CNCC(=O)O
parameter.measured: IC50 (nM)
Numbers only, in nM.

compound	IC50 / nM
CCO[C@@H]1C[C@H]2C(=O)NC3(CCCC3)C(=O)N(C)[C@@H](C3CCCCC3)C(=O)N(C)[C@H](C(=O)N3CCCC3)CC(=O)N(C)[C@@H](CC(F)(F)F)C(=O)N[C@@H]([C@@H](C)CC)C(=O)N(C)CC(=O)N(C)CC(=O)N(C)[C@@H](Cc3ccc(C)cc3)C(=O)N(C)CC(=O)N[C@@H](CCc3cc(F)c(C(F)(F)F)c(F)c3)C(=O)N2C1 [Compound 1301] ([NMeAbu(4,4,4-F3)]I[Sar][Sar][NMePhe(4-Me)][Sar][hPhe(3,5-F2-4-CF3)][Hyp](Et)[Ac5c][NMeChg][NMeD]-Pyrrolidide; lactam N-11)	0.67

Now consider a different compound.
Lookup: GET /values?readout=IC50&item= CC[C@H](C)[C@@H]1NC(=O)[C@H](CC(C)C)N(C)C(=O)C[C@@H](C(=O)N(C)C)N(C)C(=O)[C@H]([C@@H](C)CC)N(C)C(=O)C2(CCCC2)NC(=O)[C@@H]2CCCN2C(=O)[C@H](CCc2ccc(C(F)(F)F)c(Cl)c2)NC(=O)CN(C)C(=O)[C@H](Cc2ccc(C)cc2)N(CC)C(=O)[C@@H]2CCN2C(=O)[C@H](C)N(C)C1=O [Compound 866] ([NMeL]I[NMeA][Aze][NEtPhe(4-Me)][Sar][hPhe(3-Cl-4-CF3)]P[Ac5c][NMeI][NMeD]-NMe2; lactam N-11)
Found: 1.2
